pEC50: −log10 of the molar value.
// endpoint pEC50 / system Glutamate receptor ionotropic, NMDA 2B (Rattus norvegicus, UniProt P35439+Q00960)
property measured: pEC50

Reference set, count: 3
CCc1sc2ncn(CC(=O)N3CC(C)(F)C3)c(=O)c2c1-c1ccc(F)c(Br)c1
5.74
CC1(F)CN(C(=O)Cn2cnc3scc(-c4ccc(F)c(Br)c4)c3c2=O)C1
6.13
CC1(F)CN(C(=O)Cn2cnc3sc(C#N)c(-c4ccc(F)c(Br)c4)c3c2=O)C1
6.44

A. Cc1sc2ncn(CC(=O)N3CC(F)(C4CC4)C3)c(=O)c2c1-c1cccc(Br)c1
B. Cc1sc2ncn(CC(=O)N3CC(C)(F)C3)c(=O)c2c1-c1ccc2ccn(C)c2c1
Hey, between A and B which has a smaller measured pEC50? Let me know the label of the one you choose.
B

1. Cc1sc2ncn(CC(=O)N3CC(C)C3)c(=O)c2c1-c1cccc(Br)c1
2. Cc1sc2ncn(CC(=O)N3CC(C)(F)C3)c(=O)c2c1-c1ccc2c(c1)OC(F)(F)O2
3. Cc1sc2ncn(CC(=O)N3CC(C)(F)C3)c(=O)c2c1-c1cc(F)cc(Cl)c1
4. Cc1sc2ncn(CC(=O)N3CC(C)(F)C3)c(=O)c2c1-c1ccc(Cl)c(Cl)c1
hey, can you rank those compounds up there by pEC50? biggest number first please Please write the labels in the order that was asked for.
4, 3, 2, 1
(4: 6.39, 3: 5.80, 2: 5.55, 1: 5.12)

a. Cc1sc2ncn(CC(=O)N3CC(C)(F)C3)c(=O)c2c1-c1ccc(F)c(Cl)c1
b. Cc1sc2ncn(CC(=O)N3CCC(C)C3)c(=O)c2c1-c1cccc(Br)c1 (stereo not drawn)
c. Cc1sc2ncn(CC(=O)N3CC[C@H](F)C3)c(=O)c2c1-c1cccc(Br)c1
d. Cc1sc2ncn(CC(=O)N3CC(C)(F)C3)c(=O)c2c1-c1cccc(Cl)c1
e. Cc1sc2ncn(CC(=O)N3CC(C)(F)C3)c(=O)c2c1-c1ccc(F)c(Br)c1
hey, can you rank those compounds up there by pEC50? biggest number first please Please write the labels in the order that was asked for.
e, a, d, b, c

1. Cc1sc2ncn(CC(=O)N3CC(C)(F)C3)c(=O)c2c1-c1ccc(F)c(C#N)c1
2. Cc1sc2ncn(CC(=O)N3CCC3)c(=O)c2c1-c1cccc(Br)c1
3. Cc1sc2ncn(CC(=O)N3CC(C)(F)C3)c(=O)c2c1-c1ccc(F)c(C(F)(F)F)c1
Please produce an ascending ranking of these compounds based on pEC50. Please write the labels in the order that was asked for.
2, 1, 3
(2: 4.64, 1: 5.89, 3: 6.22)

* * *

- system: Glutamate receptor ionotropic, NMDA 2C (Homo sapiens, UniProt Q05586+Q14957)
- Sequence (Q14957 whole entry, one chain of several): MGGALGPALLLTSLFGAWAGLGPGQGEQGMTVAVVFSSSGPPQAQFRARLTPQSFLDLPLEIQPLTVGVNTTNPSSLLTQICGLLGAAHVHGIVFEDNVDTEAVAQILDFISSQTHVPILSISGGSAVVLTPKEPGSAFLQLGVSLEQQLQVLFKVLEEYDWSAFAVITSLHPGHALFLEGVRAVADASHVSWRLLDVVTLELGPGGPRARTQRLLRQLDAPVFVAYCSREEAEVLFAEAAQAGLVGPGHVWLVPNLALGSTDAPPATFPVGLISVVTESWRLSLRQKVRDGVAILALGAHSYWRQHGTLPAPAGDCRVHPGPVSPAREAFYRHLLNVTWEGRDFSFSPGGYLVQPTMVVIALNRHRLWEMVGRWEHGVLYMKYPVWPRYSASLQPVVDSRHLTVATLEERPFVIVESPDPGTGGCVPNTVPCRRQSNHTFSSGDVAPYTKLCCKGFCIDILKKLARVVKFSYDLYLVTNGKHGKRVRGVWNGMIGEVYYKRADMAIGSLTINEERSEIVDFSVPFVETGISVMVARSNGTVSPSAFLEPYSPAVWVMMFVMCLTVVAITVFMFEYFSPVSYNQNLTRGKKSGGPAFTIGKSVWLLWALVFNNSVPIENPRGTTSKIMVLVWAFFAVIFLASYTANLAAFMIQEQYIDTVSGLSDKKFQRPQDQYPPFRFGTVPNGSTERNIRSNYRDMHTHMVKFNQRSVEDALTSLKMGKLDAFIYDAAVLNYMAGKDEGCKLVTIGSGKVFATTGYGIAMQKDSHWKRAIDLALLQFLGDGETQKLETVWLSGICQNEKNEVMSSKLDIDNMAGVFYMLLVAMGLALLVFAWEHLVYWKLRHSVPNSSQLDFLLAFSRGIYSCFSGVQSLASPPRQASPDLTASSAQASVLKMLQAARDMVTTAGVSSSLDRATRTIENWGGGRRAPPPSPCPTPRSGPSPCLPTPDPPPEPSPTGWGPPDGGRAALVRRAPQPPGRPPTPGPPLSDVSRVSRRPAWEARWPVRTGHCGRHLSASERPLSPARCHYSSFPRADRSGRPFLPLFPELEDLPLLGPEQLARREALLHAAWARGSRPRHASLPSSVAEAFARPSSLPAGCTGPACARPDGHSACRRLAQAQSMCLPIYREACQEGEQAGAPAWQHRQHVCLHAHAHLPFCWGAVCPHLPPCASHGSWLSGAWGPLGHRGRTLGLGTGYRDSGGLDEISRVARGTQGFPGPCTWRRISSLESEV
- method notes: Positive allosteric modulation of GluN2C receptor (unknown origin)
property measured: pEC50
The read-out pEC50 is expressed as -log10 of concentration in moles per litre.

Which pEC50 reading was recorded for the compound C[C@H](CC[C@](C)(O)C(F)(F)F)[C@H]1CC[C@H]2[C@@H]3CC=C4C[C@@](C)(O)CC[C@]4(C)[C@H]3CC[C@]12C [DALZANEMDOR] ?
7.10

* * *

pEC50: −log10 of the molar value.
// endpoint pEC50 / system Glutamate receptor ionotropic, NMDA 2D (Rattus norvegicus, UniProt P35439+Q62645)
property measured: pEC50

Reference set, count: 3
Cc1sc2ncn(CC(=O)N3CC(C)(F)C3)c(=O)c2c1-c1cccc(Cl)c1F
5.16
Cc1sc2ncn(CC(=O)N3CC(C)(F)C3)c(=O)c2c1-c1ccc(F)c(C#N)c1
5.32
Cc1sc2ncn(CC(=O)N3CC(C)(F)C3)c(=O)c2c1-c1ccc(F)c(C(F)(F)F)c1
5.62

1. Cc1sc2ncn(CC(=O)N3CC(F)(C4CC4)C3)c(=O)c2c1-c1cccc(Br)c1
2. C#Cc1sc2ncn(CC(=O)N3CC(C)(F)C3)c(=O)c2c1-c1ccc(F)c(Br)c1
Just curious, which one has the larger pEC50 reading, 1 or 2 ? Let me know the label of the one you choose.
2
